- measurement description: bioavailability indices in infected mice, one-compartment oral model
- Design: species or system I.C.R. mouse
- measurement conditions: in vivo, po; I.C.R. mouse infected with S. pyogenes 77A, per os, 40 mg/kg, 10% DMSO; read-out: Cmax
readout name: Cmax (ng/mL)
Give a bare numeral; the unit ng/mL is implied.

Which Cmax is reported for this compound? C[C@@H](O)[C@H]1C(=O)N2C(C(=O)O)=C([C@H]3CCCO3)S[C@H]12 [SUN-5555, reference compound]
2640

---

- Tested on: P. aeruginosa 1771 M
- measurement description: agar plate dilution method, MIC
- Assay type: cell-based, Pseudomonas aeruginosa
- measurement conditions: about 10^7 CFU/ml, 37° C., 18 hours
Provide the recorded minimum inhibitory concentration for the entries that follow.
Simply state the number, no unit and no words.

State the recorded minimum inhibitory concentration for this entry: `C[C@@H](O)[C@H]1C(=O)N2C(C(=O)O)=C([C@H](O)C3CC3)[C@H](C)[C@H]12`
1.563

Can you look up the measured minimum inhibitory concentration of `CC(C)[C@@H](O)C1=C(C(=O)O)N2C(=O)[C@H]([C@@H](C)O)[C@H]2[C@H]1C` for me?
0.781

Tell me the measured minimum inhibitory concentration of `C[C@@H](O)[C@H]1C(=O)N2C(C(=O)O)=C([C@H](O)C3CCCC3)[C@H](C)[C@H]12` , please.
1.563

Quick check: minimum inhibitory concentration of C[C@@H](O)[C@H]1C(=O)N2C(C(=O)O)=C([C@H]3CCCO3)S[C@H]12 [SUN-5555, reference compound] ?
3.125

---

Record form. Attribute: minimum inhibitory concentration. Fill in for each entry.
- Tested on: S. aureus SG 511
- measurement description: agar plate dilution method, MIC
- Assay type: cell-based
- measurement conditions: about 10^7 CFU/ml, 37° C., 18 hours
A bare number is all that is needed in reply.

Which minimum inhibitory concentration value is on record for `C[C@@H](O)[C@H]1C(=O)N2C(C(=O)O)=C([C@H](O)C3CC3)[C@H](C)[C@H]12` ?
0.049

Form field: reported minimum inhibitory concentration of C[C@@H](O)[C@H]1C(=O)N2C(C(=O)O)=C([C@H]3CCCO3)S[C@H]12 [SUN-5555, reference compound]
0.098

Recorded minimum inhibitory concentration of `CC(C)[C@@H](O)C1=C(C(=O)O)N2C(=O)[C@H]([C@@H](C)O)[C@H]2[C@H]1C` , please.
0.098

Requested field: minimum inhibitory concentration. Item: `C[C@@H](O)[C@H]1C(=O)N2C(C(=O)O)=C([C@H](O)C3CCCC3)[C@H](C)[C@H]12`
0.098

---

- Test system: S. aureus 285
- measurement description: agar plate dilution method, MIC
- Format: cell-based
- measurement conditions: about 10^7 CFU/ml, 37° C., 18 hours
Exercise: for every item that follows, state its recorded minimum inhibitory concentration.

What value of minimum inhibitory concentration has been recorded for this entry: C[C@@H](O)[C@H]1C(=O)N2C(C(=O)O)=C([C@H]3CCCO3)S[C@H]12 [SUN-5555, reference compound]
0.098

Looking for the measured minimum inhibitory concentration of `C[C@@H](O)[C@H]1C(=O)N2C(C(=O)O)=C([C@H](O)C3CCCC3)[C@H](C)[C@H]12` , can you help?
0.098

Quick one: minimum inhibitory concentration of `CC(C)[C@@H](O)C1=C(C(=O)O)N2C(=O)[C@H]([C@@H](C)O)[C@H]2[C@H]1C` ?
0.098

State the recorded minimum inhibitory concentration for this entry: `C[C@@H](O)[C@H]1C(=O)N2C(C(=O)O)=C([C@H](O)C3CC3)[C@H](C)[C@H]12`
0.049
